# System: 186277-243-T-J2-PDC complex spheroid viability
# PROCEDURE_DETAILS: Anticancer human tumor 186277-243-T-J2-PDC patient-derived colon adenocarcinoma cell line growth inhibition [POLQ]
# CONDITION_DETAILS: second compound 1 µM; first compound 0.0316 µM; stronger effect = lower value
Entries and their measured viability, T/C follow.
# value in %; strip the unit string

Worked cases, viability, T/C given:
CC[C@@]1(O)C(=O)OCc2c1cc1n(c2=O)Cc2cc3c(CN(C)C)c(O)ccc3nc2-1 + Cc1cccc(N(C)C(=O)C2C(O)CCN2c2nc(C)cc(C(F)(F)F)c2C#N)c1 : 74
Cn1ncnc1[C@H]1c2n[nH]c(=O)c3cc(F)cc(c23)N[C@@H]1c1ccc(F)cc1 + Cc1cccc(N(C)C(=O)C2C(O)CCN2c2nc(C)cc(C(F)(F)F)c2C#N)c1 : 119
C#Cc1c(F)ccc2cc(O)cc(-c3ncc4c(N5CC6CCC(C5)N6)nc(OCC56CCCN5CC(F)C6)nc4c3F)c12 (stereo not given) + Nc1ccc(C#CCN(C(=O)Cc2ncc(C(F)(F)F)cc2C(F)(F)F)c2ccc(F)cc2)nn1 : 103
CC(C)n1c(=O)n(C)c2cnc3cc(F)c(-c4ccc(OCCCN5CCCCC5)nc4)cc3c21 + COC1C(OC(N)=O)C(O)C(Oc2ccc3c(O)c(NC(=O)c4ccc(O)c(CC=C(C)C)c4)c(=O)oc3c2C)OC1(C)C : 110

Here is the next item to consider.
GET /value?item= CNCc1ccc(-c2[nH]c3cc(F)cc4c3c2CCNC4=O)cc1 + Nc1ccc(C#CCN(C(=O)Cc2ncc(C(F)(F)F)cc2C(F)(F)F)c2ccc(F)cc2)nn1 &field=viability, T/C returns 92.4

* * *

# Tested on: 186277-243-T-J2-PDC complex spheroid viability
# PROCEDURE_DETAILS: Anticancer human tumor 186277-243-T-J2-PDC cell line growth inhibition [POLQ];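 further: spheroids exposed to compounds for seven days; 100% = DMSO vehicle control viability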
# CONDITION_DETAILS: second compound 0.0316 µM; first compound 0.000316 µM; stronger effect = lower value
MEASUREMENT_LABEL: viability, T/C (%)
# value in %; strip the unit string

CC[C@@]1(O)C(=O)OCc2c1cc1n(c2=O)Cc2cc3c(CN(C)C)c(O)ccc3nc2-1 + COC1C(OC(N)=O)C(O)C(Oc2ccc3c(O)c(NC(=O)c4ccc(O)c(CC=C(C)C)c4)c(=O)oc3c2C)OC1(C)C : 105
Cn1ncnc1[C@H]1c2n[nH]c(=O)c3cc(F)cc(c23)N[C@@H]1c1ccc(F)cc1 + COC1C(OC(N)=O)C(O)C(Oc2ccc3c(O)c(NC(=O)c4ccc(O)c(CC=C(C)C)c4)c(=O)oc3c2C)OC1(C)C : 96.7

GET /value?item= CC[C@@]1(O)C(=O)OCc2c1cc1n(c2=O)Cc2cc3c(CN(C)C)c(O)ccc3nc2-1 + Nc1ccc(C#CCN(C(=O)Cc2ncc(C(F)(F)F)cc2C(F)(F)F)c2ccc(F)cc2)nn1 &field=viability, T/C returns 114

GET /value?item= Cn1ncnc1[C@H]1c2n[nH]c(=O)c3cc(F)cc(c23)N[C@@H]1c1ccc(F)cc1 + Cc1cccc(N(C)C(=O)C2C(O)CCN2c2nc(C)cc(C(F)(F)F)c2C#N)c1 &field=viability, T/C returns 101

GET /value?item= Cn1ncnc1[C@H]1c2n[nH]c(=O)c3cc(F)cc(c23)N[C@@H]1c1ccc(F)cc1 + Nc1ccc(C#CCN(C(=O)Cc2ncc(C(F)(F)F)cc2C(F)(F)F)c2ccc(F)cc2)nn1 &field=viability, T/C returns 101

GET /value?item= CC[C@@]1(O)C(=O)OCc2c1cc1n(c2=O)Cc2cc3c(CN(C)C)c(O)ccc3nc2-1 + Cc1cccc(N(C)C(=O)C2C(O)CCN2c2nc(C)cc(C(F)(F)F)c2C#N)c1 &field=viability, T/C returns 112
